# TARGET_DESC: CCR2 (Homo sapiens (Human))
# METHOD: Calcium activity assayed on the FLIPR Tetra in HEK-Gqi5 cells stably expressing CCR2
# Assay type: cell-based
# ASSAY_CONTEXT: FLIPR Tetra calcium assay
OUTCOME_MEASURE: CCR2 % ANTAGONISM (%)

>>> observed_value("CCSc1ccc(Cl)cc1NS(=O)(=O)c1ccc(Cl)c(C(F)(F)F)c1")
81
>>> observed_value("O=[N+]([O-])c1cccc(C[S+]([O-])c2ccccc2NS(=O)(=O)c2cc3ccccc3o2)c1 (stereo not shown)")
97
>>> observed_value("CCS(=O)(=O)c1ccc(Cl)cc1NS(=O)(=O)c1ccc(Cl)c(C(F)(F)F)c1")
90
>>> observed_value("CSc1ccc(Cl)cc1NS(=O)(=O)c1ccc(C)o1")
77
>>> observed_value("CS(=O)(=O)c1ccc(Cl)cc1NS(=O)(=O)c1cccc(Cl)c1F")
101
>>> observed_value("Nc1cc(C[S+]([O-])c2ccc(Cl)cc2NS(=O)(=O)c2cc3ccccc3o2)ccn1 (stereo not shown)")
101
>>> observed_value("CC(=O)Nc1nc(C[S+]([O-])c2ccc(Cl)cc2NS(=O)(=O)c2cc3ccccc3o2)cs1 (stereo not shown)")
79
>>> observed_value("O=S(=O)(Nc1cc(Cl)ccc1[S+]([O-])Cc1cccnc1)c1ccc(Cl)c(C(F)(F)F)c1 (stereo not shown)")
97
>>> observed_value("O=S(=O)(Nc1cc(Cl)ccc1SCc1ccccn1)c1ccc(Cl)c(C(F)(F)F)c1")
79
>>> observed_value("Nc1cccc(CSc2ccc(Cl)cc2NS(=O)(=O)c2cc3ccccc3o2)c1")
92
>>> observed_value("O=S(=O)(Nc1cc(Cl)ccc1[S+]([O-])Cc1cccc(O)c1)c1cc2ccccc2o1 (stereo not shown)")
103
>>> observed_value("CS(=O)(=O)c1ccc(Cl)cc1NS(=O)(=O)c1ccc(Br)cc1")
84
>>> observed_value("Nc1cccc(CS(=O)(=O)c2ccc(Cl)cc2NS(=O)(=O)c2cccc(Cl)c2)c1")
91
>>> observed_value("O=S(=O)(Nc1cc(Cl)ccc1SCc1ccccn1)c1cc2ccccc2o1")
91
>>> observed_value("O=S(=O)(Cc1c[nH]cn1)c1ccc(Cl)cc1NS(=O)(=O)c1ccc(Cl)c(C(F)(F)F)c1")
108
>>> observed_value("O=S(=O)(Cc1ccccc1)c1ccc(Cl)cc1NS(=O)(=O)c1cc2ccccc2o1")
90

----------
# TARGET_DESC: CCR2 (Homo sapiens (Human), UniProt P41597)
# Sequence (P41597 whole entry, species assumed): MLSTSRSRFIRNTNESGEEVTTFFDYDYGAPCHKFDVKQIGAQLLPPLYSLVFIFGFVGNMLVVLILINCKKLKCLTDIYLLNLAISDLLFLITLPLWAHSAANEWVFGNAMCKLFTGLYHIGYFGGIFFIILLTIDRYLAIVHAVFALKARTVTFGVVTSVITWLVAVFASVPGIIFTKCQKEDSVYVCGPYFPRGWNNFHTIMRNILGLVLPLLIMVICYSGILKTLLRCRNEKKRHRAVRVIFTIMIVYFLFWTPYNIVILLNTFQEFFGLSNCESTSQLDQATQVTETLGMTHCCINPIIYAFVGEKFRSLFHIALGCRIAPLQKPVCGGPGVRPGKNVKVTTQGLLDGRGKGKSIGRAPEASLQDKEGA
# METHOD: Calcium activity assayed on the FLIPR Tetra in HEK-Gqi5 cells stably expressing CCR2
# ASSAY_CONTEXT: FLIPR Tetra calcium assay
OUTCOME_MEASURE: IC50 (nM)

>>> observed_value("Cc1ccc(S(=O)(=O)Nc2cc(Cl)ccc2[S+](C)[O-])o1 (centres unmarked)")
194
>>> observed_value("Nc1cccc(CSc2ccc(Cl)cc2NS(=O)(=O)c2ccc(Cl)cc2F)c1")
2820
>>> observed_value("O=S(=O)(Cc1ccccn1)c1ccc(Cl)cc1NS(=O)(=O)c1cc2ccccc2o1")
29
>>> observed_value("CN(C)C(=O)CCS(=O)(=O)c1ccc(Cl)cc1NS(=O)(=O)c1cc2ccccc2o1")
76
>>> observed_value("CS(=O)(=O)c1ccc(Cl)cc1NS(=O)(=O)c1cc2ccccc2o1")
42
>>> observed_value("Nc1ccccc1C[S+]([O-])c1ccc(Cl)cc1NS(=O)(=O)c1cc2ccccc2o1 (centres unmarked)")
115

a: CN(C)C(=O)CCSc1ccc(Cl)cc1NS(=O)(=O)c1cc2ccccc2o1
b: Nc1cccc(CS(=O)(=O)c2ccc(Cl)cc2NS(=O)(=O)c2cc3ccccc3o2)c1
Ask | Form: Entry with minimum IC50 (choose one): a / b Label of pick, please.
Reply | b

----------
# TARGET_DESC: UniProt:P41597
# METHOD: Calcium activity assayed on the FLIPR Tetra in HEK-Gqi5 cells stably expressing CCR2
# Format: cell-based
# ASSAY_CONTEXT: FLIPR Tetra calcium assay
OUTCOME_MEASURE: CCR2 % ANTAGONISM (%)

>>> observed_value("O=S(=O)(Nc1cc(Cl)ccc1[S+]([O-])Cc1ccccc1)c1cc2ccccc2o1 (stereo not drawn)")
85
>>> observed_value("Nc1cccc(CS(=O)(=O)c2ccc(Cl)cc2NS(=O)(=O)c2ccc(Cl)cc2)c1")
99
>>> observed_value("Nc1ccc(CS(=O)(=O)c2ccc(Cl)cc2NS(=O)(=O)c2cc3ccccc3o2)cc1")
104
>>> observed_value("CSc1ccc(Cl)cc1NS(=O)(=O)c1ccc(Cl)c(C(F)(F)F)c1")
82
>>> observed_value("CC(C)Sc1ccc(Cl)cc1NS(=O)(=O)c1ccc(Cl)c(C(F)(F)F)c1")
72
>>> observed_value("CN(C)C(=O)CC[S+]([O-])c1ccc(Cl)cc1NS(=O)(=O)c1ccc(Cl)c(C(F)(F)F)c1 (stereo not drawn)")
89

----------
# TARGET_DESC: CCR2 (Homo sapiens (Human))
# METHOD: Calcium activity assayed on the FLIPR Tetra in HEK-Gqi5 cells stably expressing CCR2
# Type: cell-based
# ASSAY_CONTEXT: FLIPR Tetra calcium assay
OUTCOME_MEASURE: CCR2 % ANTAGONISM (%)

>>> observed_value("CN(C)C(=O)CCS(=O)(=O)c1ccc(Cl)cc1NS(=O)(=O)c1ccc(F)cc1F")
89
>>> observed_value("Nc1cc(CS(=O)(=O)c2ccc(Cl)cc2NS(=O)(=O)c2cc3ccccc3o2)n[nH]1")
98
>>> observed_value("O=S(=O)(Nc1cc(Cl)ccc1SC(F)(F)F)c1cc2ccccc2o1")
92
>>> observed_value("C[N+](C)([O-])CCCS(=O)(=O)c1ccc(Cl)cc1NS(=O)(=O)c1cc2ccccc2o1")
83
>>> observed_value("C[S+]([O-])c1ccc(Cl)cc1NS(=O)(=O)c1ccc(I)cc1 (stereo not drawn)")
95
>>> observed_value("O=S(=O)(Nc1cc(Cl)ccc1SCc1ncccn1)c1cc2ccccc2o1")
100
>>> observed_value("CN(C)CCC[S+]([O-])c1ccc(Cl)cc1NS(=O)(=O)c1cc2ccccc2o1 (stereo not drawn)")
81
>>> observed_value("O=S(=O)(Nc1cc(Cl)ccc1SCc1ncc[nH]1)c1ccc(Cl)c(C(F)(F)F)c1")
84
>>> observed_value("O=S(=O)(Nc1cc(Cl)ccc1[S+]([O-])Cc1cccc[n+]1[O-])c1cc2ccccc2o1 (stereo not drawn)")
101
>>> observed_value("Nc1cc(CS(=O)(=O)c2ccc(Cl)cc2NS(=O)(=O)c2cc3ccccc3o2)ccn1")
101
>>> observed_value("COc1ccc(S(=O)(=O)Cc2cccc(N)c2)c(NS(=O)(=O)c2cc3ccccc3o2)c1")
107
>>> observed_value("O=S(=O)(Nc1cc(Cl)ccc1[S+]([O-])Cc1cccnc1)c1cc2ccccc2o1 (stereo not drawn)")
100
>>> observed_value("CS(=O)(=O)c1ccc(Cl)cc1NS(=O)(=O)c1cc2ccccc2o1")
93
>>> observed_value("CN(C)C(=O)CS(=O)(=O)c1ccc(Cl)cc1NS(=O)(=O)c1ccc(Cl)c(C(F)(F)F)c1")
98
>>> observed_value("Nc1cccc(CS(=O)(=O)c2ccc(Cl)cc2NS(=O)(=O)c2cc3ccccc3o2)c1")
90
>>> observed_value("Nc1cccc(C[S+]([O-])c2ccc(Cl)cc2NS(=O)(=O)c2ccc(F)cc2F)c1 (stereo not drawn)")
99
>>> observed_value("O=S(=O)(Cc1ncc[nH]1)c1ccc(Cl)cc1NS(=O)(=O)c1cc2ccccc2o1")
109
>>> observed_value("O=S(=O)(Cc1c[nH]cn1)c1ccc(Cl)cc1NS(=O)(=O)c1cc2ccccc2o1")
106
>>> observed_value("Nc1cccc(CS(=O)(=O)c2ccc(F)cc2NS(=O)(=O)c2cc3ccccc3o2)c1")
90
>>> observed_value("CSc1ccc(Cl)cc1NS(=O)(=O)c1ccco1")
93
>>> observed_value("CN(C)C(=O)CSc1ccc(Cl)cc1NS(=O)(=O)c1ccc(Cl)c(C(F)(F)F)c1")
92

----------
# TARGET_DESC: CCR2 (Homo sapiens (Human))
# METHOD: Calcium activity assayed on the FLIPR Tetra in HEK-Gqi5 cells stably expressing CCR2
# Type: cell-based
# ASSAY_CONTEXT: FLIPR Tetra calcium assay
OUTCOME_MEASURE: CCR2 % ANTAGONISM (%)

>>> observed_value("CS(=O)(=O)c1ccc(Cl)cc1NS(=O)(=O)c1ccc(Cl)c(C(F)(F)F)c1")
90
>>> observed_value("O=S(=O)(Nc1cc(Cl)ccc1SCc1c[nH]cn1)c1ccc(Cl)c(C(F)(F)F)c1")
83
>>> observed_value("O=[N+]([O-])c1cc(CSc2ccc(Cl)cc2NS(=O)(=O)c2cc3ccccc3o2)n[nH]1")
91
>>> observed_value("O=S(=O)(Nc1cc(Cl)ccc1[S+]([O-])Cc1c[nH]cn1)c1cc2ccccc2o1 (stereo not drawn)")
108
>>> observed_value("CS(=O)(=O)c1ccc(Cl)cc1NS(=O)(=O)c1cc2cc(Cl)ccc2o1")
74
>>> observed_value("NCCCS(=O)(=O)c1ccc(Cl)cc1NS(=O)(=O)c1cc2ccccc2o1")
82
>>> observed_value("Cc1ccc(S(=O)(=O)Nc2cc(Cl)ccc2[S+](C)[O-])cc1[N+](=O)[O-] (stereo not drawn)")
101
>>> observed_value("N#Cc1ccc(S(=O)(=O)Cc2ccccc2)c(NS(=O)(=O)c2cc3ccccc3o2)c1")
95
>>> observed_value("C[S+]([O-])c1ccc(Cl)cc1NS(=O)(=O)c1ccc(Cl)c(Cl)c1 (stereo not drawn)")
87
>>> observed_value("CCCn1cnc(C[S+]([O-])c2ccc(Cl)cc2NS(=O)(=O)c2cc3ccccc3o2)c1 (stereo not drawn)")
93
>>> observed_value("O=S(=O)(Nc1cc(Cl)ccc1SCc1ccccc1)c1cc2ccccc2o1")
90
>>> observed_value("O=S(=O)(Nc1cc(Cl)ccc1[S+]([O-])CCO)c1ccc(Cl)c(C(F)(F)F)c1 (stereo not drawn)")
101
>>> observed_value("O=S(=O)(Nc1cc(Cl)ccc1SCCc1ccccn1)c1cc2ccccc2o1")
84
>>> observed_value("O=S(=O)(Nc1cc(Cl)ccc1[S+]([O-])Cc1ccccn1)c1cc2ccccc2o1 (stereo not drawn)")
100
>>> observed_value("CSc1ccc(Cl)cc1NS(=O)(=O)c1ccc(Cl)cc1")
94
